# Target entity: UniProtKB P28335
# Sequence (P28335 1-458): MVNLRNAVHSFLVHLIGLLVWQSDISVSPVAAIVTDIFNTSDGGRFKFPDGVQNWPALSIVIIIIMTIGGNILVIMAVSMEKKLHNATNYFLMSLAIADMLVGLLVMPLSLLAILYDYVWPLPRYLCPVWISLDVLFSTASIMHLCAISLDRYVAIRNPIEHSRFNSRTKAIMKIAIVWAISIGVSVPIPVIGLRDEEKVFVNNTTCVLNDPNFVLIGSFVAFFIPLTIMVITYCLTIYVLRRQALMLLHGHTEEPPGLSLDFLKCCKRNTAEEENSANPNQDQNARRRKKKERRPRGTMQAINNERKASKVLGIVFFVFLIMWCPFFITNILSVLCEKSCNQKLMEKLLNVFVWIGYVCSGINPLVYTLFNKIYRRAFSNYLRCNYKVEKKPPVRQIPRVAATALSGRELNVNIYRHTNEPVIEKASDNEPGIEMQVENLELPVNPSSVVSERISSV
pIC50: −log10 of the molar value.
Observable: pIC50

I have this molecule here, CC(C)n1nc(C(=O)NCC2CCN(CCc3ccc(C(=O)O)cc3)CC2)c2ccccc21 , and I need its recorded pIC50. < 5.00

----------
Observable: IC50

Return IC50 measured with 5-HT1B (Rattus norvegicus, UniProt P28564) given this molecule: CC(C)n1nc(C(=O)NCC2CCN(CCc3ccc(C(=O)O)cc3)CC2)c2ccccc21 > 10 µM

----------
pIC50: −log10 of the molar value.
Observable: pIC50

What value of pIC50 on hERG ion channel (Homo sapiens, UniProt Q12809) does CC(C)n1nc(C(=O)NCC2CCN(CCc3ccc(C(=O)O)cc3)CC2)c2ccccc21 have? < 4.30

----------
# Target entity: 5-HT7 (UniProt P34969)
# Sequence (P34969 1-432 limits assumed): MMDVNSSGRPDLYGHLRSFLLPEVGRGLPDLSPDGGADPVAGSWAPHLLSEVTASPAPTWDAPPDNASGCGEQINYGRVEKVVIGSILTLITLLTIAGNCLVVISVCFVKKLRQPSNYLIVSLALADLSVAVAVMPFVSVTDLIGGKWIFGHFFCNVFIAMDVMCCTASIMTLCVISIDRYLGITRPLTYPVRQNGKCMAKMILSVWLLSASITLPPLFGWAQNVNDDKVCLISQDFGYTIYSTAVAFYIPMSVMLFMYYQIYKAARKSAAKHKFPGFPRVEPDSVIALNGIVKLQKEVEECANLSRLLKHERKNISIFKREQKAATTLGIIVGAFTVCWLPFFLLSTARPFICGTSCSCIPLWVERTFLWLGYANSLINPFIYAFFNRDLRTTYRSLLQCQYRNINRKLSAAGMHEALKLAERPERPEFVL
Observable: IC50

Dear colleague, I am looking for the recorded IC50 of the following compound: CC(C)n1nc(C(=O)NCC2CCN(CCc3ccc(C(=O)O)cc3)CC2)c2ccccc21 [Compound 1] > 10 µM

----------
# Target entity: hERG ion channel (Homo sapiens, UniProt Q12809)
# Construct: expressed in transfected cells; host or cells: HEK-293
# Sequence (Q12809 whole entry): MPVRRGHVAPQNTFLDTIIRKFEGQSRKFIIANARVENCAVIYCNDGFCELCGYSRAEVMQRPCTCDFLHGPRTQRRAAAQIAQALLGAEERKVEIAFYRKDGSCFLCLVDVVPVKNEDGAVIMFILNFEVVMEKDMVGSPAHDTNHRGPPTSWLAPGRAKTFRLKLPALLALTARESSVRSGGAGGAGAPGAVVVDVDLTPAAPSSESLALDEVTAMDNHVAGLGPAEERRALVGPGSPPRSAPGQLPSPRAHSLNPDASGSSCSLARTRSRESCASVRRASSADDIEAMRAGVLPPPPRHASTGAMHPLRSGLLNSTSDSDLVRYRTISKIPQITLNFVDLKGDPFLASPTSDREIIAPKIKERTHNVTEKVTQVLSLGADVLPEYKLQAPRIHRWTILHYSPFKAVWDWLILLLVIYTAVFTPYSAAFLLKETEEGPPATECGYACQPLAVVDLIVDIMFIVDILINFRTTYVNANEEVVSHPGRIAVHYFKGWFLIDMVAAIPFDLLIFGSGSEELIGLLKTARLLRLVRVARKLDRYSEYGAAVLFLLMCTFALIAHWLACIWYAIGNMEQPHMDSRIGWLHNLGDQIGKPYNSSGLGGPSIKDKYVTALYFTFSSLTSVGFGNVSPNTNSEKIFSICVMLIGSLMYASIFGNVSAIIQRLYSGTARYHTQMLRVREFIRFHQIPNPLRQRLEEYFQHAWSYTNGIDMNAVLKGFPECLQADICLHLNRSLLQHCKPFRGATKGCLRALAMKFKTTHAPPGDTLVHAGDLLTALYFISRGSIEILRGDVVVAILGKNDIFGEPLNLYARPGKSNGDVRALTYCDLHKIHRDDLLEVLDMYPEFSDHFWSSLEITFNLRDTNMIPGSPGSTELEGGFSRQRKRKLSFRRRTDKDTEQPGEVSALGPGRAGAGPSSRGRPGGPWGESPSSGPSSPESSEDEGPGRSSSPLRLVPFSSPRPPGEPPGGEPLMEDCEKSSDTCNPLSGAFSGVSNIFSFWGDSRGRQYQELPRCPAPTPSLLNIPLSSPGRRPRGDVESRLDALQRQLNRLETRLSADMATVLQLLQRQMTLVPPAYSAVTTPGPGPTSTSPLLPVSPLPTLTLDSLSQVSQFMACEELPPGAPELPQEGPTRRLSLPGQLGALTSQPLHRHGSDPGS
# Assay remarks: in vitro
# Condition notes: human
Observable: inhibition at 0.01 µM (%)
Respond with the bare value in %.

Field request: inhibition at 0.01 µM | item: CC(C)n1nc(C(=O)NCC2CCN(CCc3ccc(C(=O)O)cc3)CC2)c2ccccc21 0

----------
# Target entity: hERG ion channel (Homo sapiens, UniProt Q12809)
# Construct: expressed in transfected cells; host or cells: HEK-293
# Assay remarks: in vitro
# Condition notes: human
Observable: inhibition at 10 µM (%)
The reply should contain only the number, in %.

Requested field: inhibition at 10 µM. Item: CC(C)n1nc(C(=O)NCC2CCN(CCc3ccc(C(=O)O)cc3)CC2)c2ccccc21 [Compound 1] 6.5

----------
# Target entity: 5-HT1A (Homo sapiens)
# Sequence (P08908 whole entry, species assumed): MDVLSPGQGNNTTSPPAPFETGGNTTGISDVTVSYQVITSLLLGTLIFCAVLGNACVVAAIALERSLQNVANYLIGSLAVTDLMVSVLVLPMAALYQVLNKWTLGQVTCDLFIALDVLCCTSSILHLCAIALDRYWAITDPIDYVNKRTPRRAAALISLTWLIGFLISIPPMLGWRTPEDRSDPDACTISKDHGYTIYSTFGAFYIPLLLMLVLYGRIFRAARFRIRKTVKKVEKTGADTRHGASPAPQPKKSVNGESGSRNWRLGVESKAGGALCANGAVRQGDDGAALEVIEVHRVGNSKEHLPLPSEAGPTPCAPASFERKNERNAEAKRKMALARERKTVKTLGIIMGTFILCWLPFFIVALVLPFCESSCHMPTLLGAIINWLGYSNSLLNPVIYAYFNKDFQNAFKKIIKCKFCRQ
# Assay remarks: Binding to the serotoninergic receptors
# Condition notes: purified membranes
Observable: IC50

Find the recorded IC50 belonging to CC(C)n1nc(C(=O)NCC2CCN(CCc3ccc(C(=O)O)cc3)CC2)c2ccccc21 [Compound 1] and report it. > 10 µM

----------
Observable: IC50

Look up IC50 with 5-HT5A (Homo sapiens) for this compound: CC(C)n1nc(C(=O)NCC2CCN(CCc3ccc(C(=O)O)cc3)CC2)c2ccccc21 > 10 µM
